system: PC15; assay: qHTS profiling for inhibitors of Plasmodium falciparum proliferation (AID 504749); further: nearly all actives have a fitted effect of over 60% in size; details: P. falciparum in erythrocytes, SYBR Green DNA, 72 h; series mostly up to 28.7 µM
Records with an inconclusive call do not appear. The source made the active and inactive calls. The call rests on the fitted dose curve; in most records, active means well fitted inhibition curve with a large enough effect; inconclusive means small, poorly fitted or top-dose-only effect; inactive means flat fitted curve, though single readings scatter.
Classes used: active, inactive

{"columns": ["compound", "cat"],
 "data": [
  ["CNC(=O)Oc1ccccc1C(=O)Nc1ccccc1", "inactive"],
  ["CN1C2CCC1CC(OC(c1ccccc1)c1ccc(Cl)cc1)C2 (stereo unspecified)", "active"],
  ["Clc1ccc(C2(Cn3cncn3)OCCO2)c(Cl)c1", "inactive"],
  ["CN1CCCC(=C(c2cccs2)c2cccs2)C1", "inactive"],
  ["CCCC(C)C1(CC)C(=O)NC(=O)NC1=O (stereo unspecified)", "inactive"],
  ["O[C@H]1[C@H]2[C@H](O)CCCN2C[C@H]1O", "inactive"],
  ["O=P(O)(O)C(Cl)(Cl)P(=O)(O)O", "inactive"],
  ["ClCC1CO1 (stereo unspecified)", "inactive"],
  ["CCCCCCCCOC(=O)c1ccccc1C(=O)OCCCCCCCC", "inactive"],
  ["CCC(N)Cc1c[nH]c2ccccc12 (stereo unspecified)", "inactive"],
  ["C=CCN1CC[C@]23c4c5ccc(O)c4O[C@H]2[C@@H](O)C=C[C@H]3[C@H]1C5", "inactive"],
  ["CCC1(c2ccccc2)C(=O)NC(=O)N(C(=O)c2ccccc2)C1=O (stereo unspecified)", "inactive"],
  ["O=[N+]([O-])c1ccc(F)c([N+](=O)[O-])c1", "inactive"],
  ["CNC1(c2ccccc2Cl)CCCCC1=O (stereo unspecified)", "inactive"],
  ["NCC(O)c1cccc(O)c1 (stereo unspecified)", "inactive"],
  ["CCCC(C)(COC(N)=O)COC(=O)NC1CC1 (stereo unspecified)", "inactive"]
]}
